Measured values drawn from patent US10556936B2 for this set.

- Test system: HDM-specific T cells expanded from PBMCs of HDM-allergic individuals
- assay_summary: T cell reactivity of peptides: IFN/IL-5 ELISPOT on in vitro expanded HDM-specific T cells
- Type: cell-based, human
- particulars: individual peptides 10 μg/mL
- Method: Each sequence of an “L” cluster was aligned separately using the MEGA software tool with ClustalW. Fifteen-mer peptides overlapping by 10 amino acids were generated and the last 15-mer peptide was added when the sequence length was not divisible by 5, 14,783 unique peptides remained. […]
endpoint_label: SFC/donor (SFC/donor)

1. 108 (NKRPFIISRATAPGH; Immunogenic fragment) [compound 108] = 146
2. 142 (DKKFLFNTAVLFDRQ; Immunogenic fragment) [compound 142] = 22
3. 72 (KRYLLRLEHFYQSNE; Immunogenic fragment) [compound 72] = 4
4. 145 (PPKPELLVIDTELGR; Immunogenic fragment) [compound 145] = 228
5. 93 (QVVQQYHNLIGLPAM; Immunogenic fragment) [compound 93] = 11
6. 47 (ELLKKKGIIPGIKVD; Immunogenic fragment) [compound 47] = 12
7. 76 (FKSFEIIAVEELTLG; Immunogenic fragment) [compound 76] = 8
8. 50 (FIMLKPDAVQRGIVG; Immunogenic fragment) [compound 50] = 7
9. 80 (NLSSKVLPNLNVPYC; Immunogenic fragment) [compound 80] = 4

* * *

- Tested on: HDM-specific T cells expanded from PBMCs of HDM-allergic individuals
- assay_summary: T cell reactivity of peptides: IFN/IL-5 ELISPOT on in vitro expanded HDM-specific T cells
- Type: cell-based, human
- particulars: percentage of donors that produced a response against the peptide, 10 μg/mL
The entries below are paired with their reported % responder.
endpoint_label: % responder (%)

1. 47 (ELLKKKGIIPGIKVD; Immunogenic fragment) [compound 47] = 5
2. 115 (AFYSFVRNHNTDNAI; Immunogenic fragment) [compound 115] = 20
3. 130 (SIIFDGKPYYQFIYT; Immunogenic fragment) [compound 130] = 5
4. 89 (RAPFRKNTNWKRYTQ; Immunogenic fragment) [compound 89] = 5
5. 113 (LCIRWYQLGAFYSFA; Immunogenic fragment) [compound 113] = 15
6. 76 (FKSFEIIAVEELTLG; Immunogenic fragment) [compound 76] = 5
7. 106 (AALTKLNKRPFIISR; Immunogenic fragment) [compound 106] = 10
8. 62 (RHIINESYKKLLPKS; Immunogenic fragment) [compound 62] = 5
9. 45 (IMRILCCKSRKVAPC; Immunogenic fragment) [compound 45] = 5
10. 146 (LLVIDTELGRLGMQI; Immunogenic fragment) [compound 146] = 20
11. 81 (DDGNLISRALPHLGV; Immunogenic fragment) [compound 81] = 5
12. 149 (SSSQYQMAWAFGNNV; Immunogenic fragment) [compound 149] = 10
13. 46 (FNYLPVDVQEELRNT; Immunogenic fragment) [compound 46] = 5
14. 61 (AMLQCRHVISESYRK; Immunogenic fragment) [compound 61] = 5
15. 82 (YIGYKIEKHSKNLIQ; Immunogenic fragment) [compound 82] = 5
16. 57 (WEGLNAVKTGRVMLG; Immunogenic fragment) [compound 57] = 5
17. 83 (DLSMTKLKRVRPSGF; Immunogenic fragment) [compound 83] = 5
18. 127 (SQHLGYQTNQSIIIL; Immunogenic fragment) [compound 127] = 10
19. 136 (DKSKKIHYQFEWKFN; Immunogenic fragment) [compound 136] = 5
